# Tested on: Escherichia coli TOP10;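 note: peptides expressed intracellularly from a pBAD plasmid library in pooled LB shake-flask culture, induced with 0.3% L-arabinose, DNA abundance read by NGS, three biological replicates, DESeq2 with apeglm shrinkage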
# test-summary: shrunken log2 fold change of peptide-encoding DNA abundance (4.5 h post-induction vs induction); higher = less antimicrobial activity (less host growth inhibition)
# measurement-context: time post-induction: 4.5 h; library: site-saturation at positions 5, 18, 19, 20
measurement-kind: shrunken log2 fold change

Consider the reported shrunken log2 fold change for these sequences:
>  <sequence-string>
RRIRARPPRLPRPRPRPEKTPRP

>  <shrunken log2 fold change>
0.38

$$$$
>  <sequence-string>
RRIRSRPPRLPRPRPRPQGQPRP

>  <shrunken log2 fold change>
-0.154

$$$$
>  <sequence-string>
RRIRPRPPRLPRPRPRPYCGPRP

>  <shrunken log2 fold change>
-0.148

$$$$
>  <sequence-string>
RRIRYRPPRLPRPRPRPTNGPRP

>  <shrunken log2 fold change>
-0.126

$$$$
>  <sequence-string>
RRIRARPPRLPRPRPRPEESPRP

>  <shrunken log2 fold change>
-0.024

$$$$
>  <sequence-string>
RRIRKRPPRLPRPRPRPCLMPRP

>  <shrunken log2 fold change>
-0.0503

$$$$

Request - read-out shrunken log2 fold change | tested on Escherichia coli TOP10 | sequence RRIRCRPPRLPRPRPRPAQPPRP 0.366

Now try RRIRQRPPRLPRPRPRPRQSPRP . 0.0272
